# half-life at 2 μM per entry
Assay: Stability in simulated intestinal fluid
Format: in vitro ADME
Settings: 2 μM peptidomimetic, simulated intestinal fluid pH 7.5, 37° C.; read-out: half-life (t1/2) when incubated with simulated intestinal fluid
Field: numeric (min). Do not append units.

[[record]]
molecule = "CCc1cc(OC)ccc1-c1ccc(CC(NC(=O)[C@H](CC(=O)O)NC(=O)[C@H](CO)NC(=O)[C@@H](NC(=O)C(C)(Cc2ccccc2)NC(=O)[C@@H](NC(=O)CNC(=O)[C@H](CC(C(F)(F)F)C(F)(F)F)NC(=O)C(C)(C)NC(=O)[C@@H](N)Cc2c[nH]cn2)[C@@H](C)O)[C@@H](C)O)C(=O)NC(CCCc2ccccc2)C(N)=O)cc1 (single isomer, unassigned)"
measurement_kind = "half-life at 2 μM"
endpoint_value = 30


Kindly review the next molecule as well.
half-life at 2 μM for CCc1cc(OC)ccc1-c1ccc(CC(NC(=O)[C@H](CC(=O)O)NC(=O)[C@H](CO)NC(=O)[C@@H](NC(=O)[C@H](Cc2ccccc2)NC(=O)[C@@H](NC(=O)CNC(=O)C(CCC#N)NC(=O)C(C)(C)NC(=O)[C@@H](N)Cc2c[nH]cn2)[C@@H](C)O)[C@@H](C)O)C(=O)NC(CCCc2ccc(F)cc2F)C(N)=O)cc1 (single isomer, unassigned) is 30

* * *

Listed below: Human GLP-1 R activity (cAMP release), % activity with respect to control values for each entry.
Target: Human GLP-1 receptor (Homo sapiens, UniProt P43220)
Construct: The full-length cDNA was cloned in pcDNA3.1(+); expressed in transfected cells
Sequence (P43220 24-463): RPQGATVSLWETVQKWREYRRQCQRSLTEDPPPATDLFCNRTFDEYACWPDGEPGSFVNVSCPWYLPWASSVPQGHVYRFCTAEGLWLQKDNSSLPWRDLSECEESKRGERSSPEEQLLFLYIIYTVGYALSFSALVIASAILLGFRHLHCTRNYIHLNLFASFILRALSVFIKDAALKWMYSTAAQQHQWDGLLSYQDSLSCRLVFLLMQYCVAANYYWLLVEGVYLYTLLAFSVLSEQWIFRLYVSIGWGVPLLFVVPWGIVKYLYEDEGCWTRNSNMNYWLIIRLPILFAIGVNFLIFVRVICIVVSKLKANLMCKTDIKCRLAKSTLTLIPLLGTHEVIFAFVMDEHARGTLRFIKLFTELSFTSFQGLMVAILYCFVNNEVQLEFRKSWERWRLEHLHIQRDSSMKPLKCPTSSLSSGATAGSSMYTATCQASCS
Experiment: In vitro Human GLP-1 R agonist activity (cyclic AMP determination) in CHO/human GLP1R cells
Type: cell-based
Details: 10 μM test compound
The reply should be a number in %, with the unit left off.

[[record]]
molecule = "CCc1cc(OC)ccc1-c1ccc(CC(NC(=O)[C@H](CC(=O)O)NC(=O)[C@H](CO)NC(=O)[C@@H](NC(=O)C(C)(Cc2ccccc2F)NC(=O)[C@@H](NC(=O)CNC(=O)C(CCC#N)NC(=O)C(C)(C)NC(=O)[C@H](Cc2c[nH]cn2)NC(C)=O)[C@@H](C)O)[C@@H](C)O)C(=O)NC(CCCc2ccccc2F)C(N)=O)cc1 (single isomer, unassigned)"
target = "Human GLP-1 receptor (Homo sapiens, UniProt P43220)"
endpoint_value = 99

[[record]]
molecule = "CCc1cc(OC)ccc1-c1ccc(CC(CNC(CCCc2ccccc2F)C(N)=O)NC[C@H](CC(=O)O)NC(=O)[C@H](CO)NC(=O)[C@@H](NC(=O)C(C)(Cc2ccccc2F)NC(=O)[C@@H](NC(=O)CNC(=O)[C@H](CCC(N)=O)NC(=O)C(C)(C)NC(=O)[C@H](Cc2c[nH]cn2)NC(=O)OC)[C@H](C)O)[C@H](C)O)cc1 (single isomer, unassigned)"
target = "Human GLP-1 receptor (Homo sapiens, UniProt P43220)"
endpoint_value = 99


Next up:
Short answer for CCc1cc(OC)ccc1-c1ccc(CC(CNC(CCCc2ccccc2F)C(N)=O)NC[C@H](CC(=O)O)NC(=O)[C@H](CO)NC(=O)[C@@H](NC(=O)C(C)(Cc2ccccc2F)NC(=O)[C@@H](NC(=O)CNC(=O)[C@H](CCC(N)=O)NC(=O)C(C)(C)NC(=O)[C@@H](N)Cc2c[nH]cn2)[C@H](C)O)[C@H](C)O)cc1 (single isomer, unassigned) : Human GLP-1 R activity (cAMP release), % activity with respect to control was 99

* * *

Assay: Stability in human plasma
Type: in vitro ADME
Details: 2 μM peptidomimetic, pooled human plasma, 37° C.
Starred links: 1 amine or outer side, 2 acyl side, 3 side chain; linkers in the order of their positions; H or OH if unused. Non-standard residues stand in square brackets, D forms with d. Residues, ends and D or L forms follow the SMILES beside them. ξ: configuration not given here. ξBip(2'-Et-4'-OMe) = CCc1cc(OC)ccc1-c1ccc(CC(N)C(=O)O)cc1; X2 = O=C(C(CCCc1ccccc1Cl)N[*:1])[*:2]; Ac3c = NC1(C(=O)O)CC1
measurement-kind: half-life (t1/2) when incubated with human plasma

[[record]]
molecule = "CCc1cc(OC)ccc1-c1ccc(CC(NC(=O)[C@H](CC(=O)O)NC(=O)[C@H](CO)NC(=O)[C@@H](NC(=O)[C@H](Cc2ccccc2)NC(=O)[C@@H](NC(=O)CNC(=O)C(CCC#N)NC(=O)C(C)(C)NC(=O)[C@@H](N)Cc2c[nH]cn2)[C@@H](C)O)[C@@H](C)O)C(=O)NC(CCCc2ccccc2C(F)(F)F)C(N)=O)cc1 (single isomer, unassigned)"
endpoint_value = "(9) h"

[[record]]
molecule = "CCc1cc(OC)ccc1-c1ccc(CC(NC(=O)[C@H](CC(=O)O)NC(=O)[C@H](CO)NC(=O)[C@@H](NC(=O)C(C)(Cc2ccccc2F)NC(=O)[C@@H](NC(=O)CNC(=O)[C@H](CC(C(F)(F)F)C(F)(F)F)NC(=O)C(C)(C)NC(=O)[C@@H](N)Cc2c[nH]cn2)[C@H](C)O)[C@H](C)O)C(=O)NC(CCCc2ccccc2F)C(N)=O)cc1 (stereo partly drawn)"
endpoint_value = "(9) h"

[[record]]
molecule = "CCc1cc(OC)ccc1-c1ccc(CC(NC(=O)[C@H](CC(=O)O)NC(=O)[C@H](CO)NC(=O)[C@@H](NC(=O)[C@H](Cc2ccccc2)NC(=O)[C@@H](NC(=O)CNC(=O)[C@H](CCC(N)=O)NC(=O)C2(NC(=O)[C@@H](N)Cc3c[nH]cn3)CC2)[C@@H](C)O)[C@@H](C)O)C(=O)NC(CCCc2ccccc2Cl)C(N)=O)cc1 (stereo partly drawn) [compound 74] (H-H[Ac3c]QGTFTSD[ξBip(2'-Et-4'-OMe)][X2]-NH2)"
endpoint_value = "(9) h"


* * *

half-life at 2 μM listing for selected compounds.
Target: DPP IV (Homo sapiens, UniProt P27487)
Sequence (P27487 whole entry, species assumed): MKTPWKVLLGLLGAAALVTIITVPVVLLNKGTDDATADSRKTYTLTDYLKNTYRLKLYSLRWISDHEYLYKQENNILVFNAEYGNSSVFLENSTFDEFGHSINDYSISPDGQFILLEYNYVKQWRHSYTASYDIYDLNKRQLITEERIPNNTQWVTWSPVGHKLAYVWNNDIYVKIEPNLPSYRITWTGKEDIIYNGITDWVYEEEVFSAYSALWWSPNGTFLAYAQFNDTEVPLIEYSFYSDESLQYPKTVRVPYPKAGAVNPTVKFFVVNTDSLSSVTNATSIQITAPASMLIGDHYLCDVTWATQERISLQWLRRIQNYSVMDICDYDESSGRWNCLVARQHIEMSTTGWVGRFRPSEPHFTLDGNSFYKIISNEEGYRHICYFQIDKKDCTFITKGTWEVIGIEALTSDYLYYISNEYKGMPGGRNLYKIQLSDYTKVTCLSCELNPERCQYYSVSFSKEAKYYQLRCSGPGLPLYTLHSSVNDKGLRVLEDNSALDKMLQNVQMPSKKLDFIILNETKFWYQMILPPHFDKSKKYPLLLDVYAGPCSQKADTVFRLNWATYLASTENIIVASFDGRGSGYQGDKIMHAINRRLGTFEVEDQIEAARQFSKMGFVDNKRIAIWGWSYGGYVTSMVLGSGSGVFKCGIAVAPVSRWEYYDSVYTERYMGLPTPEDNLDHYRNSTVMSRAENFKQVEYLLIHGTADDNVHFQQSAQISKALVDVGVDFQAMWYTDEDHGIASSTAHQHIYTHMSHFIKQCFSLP
Assay: Stability against DPP IV enzyme
Format: in vitro ADME
Details: DPP IV enzyme, pH 7.8, 2 μM peptidomimetic, 37° C., read-out: half-life (t1/2) when incubated with DPP-IV enzyme
Non-standard residues stand in square brackets, D forms with d. Residues, ends and D or L forms follow the SMILES beside them. ξ: configuration not given here. ξNMeBip(2'-Et,4'-OMe) = CCc1cc(OC)ccc1-c1ccc(CC(NC)C(=O)O)cc1; Leu(5,5,5,5',5',5'-F6) = N[C@@H](CC(C(F)(F)F)C(F)(F)F)C(=O)O; ξNMeNva(5-(2-F-Ph)) = CNC(CCCc1ccccc1F)C(=O)O; ξαMePhe(2-F) = CC(N)(Cc1ccccc1F)C(=O)O; NMeD = CN[C@@H](CC(=O)O)C(=O)O; aThr = C[C@H](O)[C@H](N)C(=O)O; Aib = CC(C)(N)C(=O)O

[[record]]
compound = "CCc1cc(OC)ccc1-c1ccc(CC(CNC(CCCc2ccccc2)C(N)=O)NC(=O)[C@H](CC(=O)O)NC(=O)[C@H](CO)NC(=O)[C@@H](NC(=O)C(C)(Cc2ccccc2F)NC(=O)[C@@H](NC(=O)CNC(=O)[C@H](CCC(N)=O)NC(=O)C(C)(C)NC(=O)[C@H](Cc2c[nH]cn2)NC(C)=O)[C@H](C)O)[C@H](C)O)cc1 (single isomer, unassigned)"
measurement_kind = "half-life at 2 μM"
endpoint_value = "> 1440 min"

[[record]]
compound = "CCc1cc(OC)ccc1-c1ccc(CC(C(=O)N(C)C(CCCc2ccccc2F)C(N)=O)N(C)C(=O)[C@H](CC(=O)O)N(C)C(=O)[C@H](CO)NC(=O)[C@@H](NC(=O)C(C)(Cc2ccccc2F)NC(=O)[C@@H](NC(=O)CNC(=O)[C@H](CC(C(F)(F)F)C(F)(F)F)NC(=O)C(C)(C)NC(=O)[C@@H](N)Cc2c[nH]cn2)[C@H](C)O)[C@H](C)O)cc1 (stereo partly drawn) [compound 221] (H-H[Aib][Leu(5,5,5,5',5',5'-F6)]G[aThr][ξαMePhe(2-F)][aThr]S[NMeD][ξNMeBip(2'-Et,4'-OMe)][ξNMeNva(5-(2-F-Ph))]-NH2)"
measurement_kind = "half-life at 2 μM"
endpoint_value = "> 1440 min"


Lab note: next compound to report on.
The recorded half-life at 2 μM for CCc1cc(OC)ccc1-c1ccc(CC(NC(=O)[C@H](CC(=O)O)NC(=O)[C@H](CO)NC(=O)[C@@H](NC(=O)[C@H](Cc2ccccc2)NC(=O)[C@@H](NC(=O)CNC(=O)[C@H](CCC(N)=O)NC(=O)C2(NC(=O)[C@@H](N)Cc3c[nH]cn3)CC2)[C@@H](C)O)[C@@H](C)O)C(=O)NC(CCCc2ccc(F)cc2F)C(N)=O)cc1 (single isomer, unassigned) is 540 min

* * *

Experiment: Stability in human plasma
Format: in vitro ADME
Conditions: pH 7.8; 2 μM peptidomimetic, pooled human plasma, 37° C.; read-out: half-life (t1/2) when incubated with human plasma
Method: Reactions were terminated by the addition of TFA/H2O (15 mL, 10% (v/v)). […] The column was equilibrated with TFA/H20, at a flow rate of 1 mL/min.
Measured half-life at 2 μM by item

Reference set (2 entries):
[[record]]
molecule = "CCc1cc(OC)ccc1-c1ccc(CC(NC(=O)[C@H](CC(=O)O)NC(=O)[C@H](CO)NC(=O)[C@@H](NC(=O)[C@H](Cc2ccccc2)NC(=O)[C@@H](NC(=O)CNC(=O)C(CCC#N)NC(=O)C(C)(C)NC(=O)[C@@H](N)Cc2c[nH]cn2)[C@@H](C)O)[C@@H](C)O)C(=O)NC(CCCc2cc(C)cc(C)c2)C(N)=O)cc1 (single isomer, unassigned)"
measurement_kind = "half-life at 2 μM"
endpoint_value = "> 24 h"

[[record]]
molecule = "CCc1cc(OC)ccc1-c1ccc(CC(NC(=O)[C@H](CC(=O)O)NC(=O)[C@H](CO)NC(=O)[C@@H](NC(=O)[C@H](Cc2ccccc2)NC(=O)[C@@H](NC(=O)CNC(=O)C(CCC#N)NC(=O)C(C)(C)NC(=O)[C@@H](N)Cc2c[nH]cn2)[C@@H](C)O)[C@@H](C)O)C(=O)NC(CCCc2ccccc2)C(N)=O)cc1 (single isomer, unassigned)"
measurement_kind = "half-life at 2 μM"
endpoint_value = "> 24 h"


Here is another molecule to look at.
Lab note: CCc1cc(OC)ccc1-c1ccc(CC(NC(=O)[C@H](CC(=O)O)NC(=O)[C@H](CO)NC(=O)[C@@H](NC(=O)[C@H](Cc2ccccc2)NC(=O)[C@@H](NC(=O)CNC(=O)[C@H](CCC(N)=O)NC(=O)C(C)(C)NC(=O)[C@@H](N)Cc2c[nH]cn2)[C@@H](C)O)[C@@H](C)O)C(=O)NC(CCCc2ccc(OC)cc2Cl)C(N)=O)cc1 (single isomer, unassigned) gave half-life at 2 μM of 8 h
